tested on: MOLT-4; assay: NCI tumour cell line growth inhibition, 48 h
The source made the active and inactive calls. Rule as the data show it: active = GI50 up to about 1.1 µM and inactive = higher.
Outcomes: active, inactive

INSERT INTO measurements (compound, label_value) VALUES
  ('OCC1C2CCC3(OCCO3)C12 (stereo not given)', 'inactive'),
  ('O=C1CCc2ccc(O)c(c2)Oc2ccc(cc2)C(Sc2ccccc2)CCO1 (stereo not given)', 'inactive'),
  ('OCC(CCc1ccccc1I)C1=CCC2(CC1)OCCO2 (stereo not given)', 'inactive'),
  ('CCCCCCCCCCCCC(=O)OC(c1cnco1)c1nc(C(O)CC(O)C(O)C(C)O)co1 (stereo not given)', 'active'),
  ('CC/C(=N\NS(=O)(=O)c1ccccc1)c1ccccc1', 'inactive'),
  ('Cc1cc(Cl)ccc1NC(=O)C(=O)Cc1ccc([N+](=O)[O-])c([N+](=O)[O-])c1CC(=O)C(=O)Nc1ccc(Cl)cc1C', 'inactive'),
  ('CCN(CC)CC[n+]1ccc2c(C)c3[nH]c4ccccc4c3c(C)c2c1', 'active'),
  ('COc1cc2c(cc1C)NC(=O)/C2=C/c1c(Cl)[nH]c2ccccc12', 'inactive'),
  ('CCCN1CN(c2ccccc2)C2(CCN(CCCC(=O)c3ccc(F)cc3)CC2)C1=O', 'inactive'),
  ('CCN(CC)CC(=O)Nc1ccc2c(c1)C(=O)c1ccc(NC(=O)CN(CC)CC)cc1C2=O', 'inactive');
